- procedure-text: in vivo
- condition-notes: male, SD, rat, po, 2 mg/kg, Cmax, individual rat
quantity-measured: Cmax (ng/mL)
Write down the numeric answer in ng/mL and omit the unit.

Lookup result for Nc1ncn([C@H]2C[C@H](O)[C@@H](CO)S2)c(=O)n1 [Form F, 5-Aza-4′-thio-2′-deoxycytidine] ; measured Cmax: 886

---

- procedure-text: Thermodynamic solubility, shake-flask method
- Type: physicochemical
- condition-notes: organic solvent or mixture, thermodynamic from solid; p-Xylene; RT, 24 hours
quantity-measured: solubility at 24 h

Lookup result for Nc1ncn([C@H]2C[C@H](O)[C@@H](CO)S2)c(=O)n1 [aza-T-dCyd, 5-Aza-4′-thio-2′-deoxycytidine] ; measured solubility at 24 h: < 100 µg/mL
